- Subject of test: serotonin uptake (Rattus norvegicus, UniProt P31652)
- Sequence (P31652 whole entry): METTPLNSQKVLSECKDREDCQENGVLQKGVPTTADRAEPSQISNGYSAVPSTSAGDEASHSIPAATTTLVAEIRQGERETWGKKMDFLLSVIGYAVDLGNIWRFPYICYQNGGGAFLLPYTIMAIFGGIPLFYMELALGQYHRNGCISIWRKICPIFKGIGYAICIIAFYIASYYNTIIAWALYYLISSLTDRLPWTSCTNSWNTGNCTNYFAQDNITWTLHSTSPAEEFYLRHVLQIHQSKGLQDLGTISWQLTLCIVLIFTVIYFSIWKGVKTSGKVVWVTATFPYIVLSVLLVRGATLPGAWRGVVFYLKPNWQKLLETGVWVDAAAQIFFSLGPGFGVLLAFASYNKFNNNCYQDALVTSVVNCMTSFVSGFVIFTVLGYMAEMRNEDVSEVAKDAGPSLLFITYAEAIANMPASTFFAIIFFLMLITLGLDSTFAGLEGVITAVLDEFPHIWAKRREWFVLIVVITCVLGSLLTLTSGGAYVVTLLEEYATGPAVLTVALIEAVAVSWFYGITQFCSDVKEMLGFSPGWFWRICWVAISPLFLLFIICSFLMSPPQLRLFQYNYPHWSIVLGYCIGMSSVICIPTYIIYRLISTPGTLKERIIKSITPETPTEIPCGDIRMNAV
- Assay explanation: Inhibition of serotonin uptake (in vitro): inhibition of synaptosomal reuptake of tritiated serotonin
Item-by-item account of IC50
Quantity kind: IC50 (nM)

| Compound | Readout number |
| --- | --- |
| FC(F)(F)c1ccnc(N2CCN(CCc3c[nH]c4ccccc34)CC2)c1 [Example 37] | 386 |
| Clc1ccc(N2CCN(CCc3c[nH]c4ccccc34)CC2)nc1 [Example 54] | 30 |
| COc1ccc2[nH]cc(CCN3CCN(c4cccc(Cl)n4)CC3)c2c1 [Example 40] | 177 |
| COc1ccc(Cl)nc1N1CCN(CCCc2c[nH]c3ccccc23)CC1 [Example 71] | 4.9 |
| Cn1cc(CCN2CCN(c3cccc(Cl)n3)CC2)c2ccccc21 [Example 55] | 126 |

----------
- Subject of test: serotonin uptake (Rattus norvegicus)
- Assay explanation: Inhibition of serotonin uptake (in vitro): inhibition of synaptosomal reuptake of tritiated serotonin
- Method: Determination of endogenous monoaminergic re-uptake inhibition values both for serotonin and norepinephrine was accomplished using test methods described by P. Skolnick, et al.. Br. J. Pharmacology (1985), 86, pp. 637-644; with only minor modifications. In vitro IC50 (nM) test values were determined for representative compounds of Formula I based on their inhibition of synaptosomal reuptake of tritiated serotonin. […]
pIC50: −log10 of the molar value. Counter-ions that a name gives are not always drawn.
Item-by-item account of pIC50

| Compound | pIC50 |
| --- | --- |
| COc1cccnc1N1C[C@@H]2C[C@H]1CN2CCc1c[nH]c2ccccc12 | 7.90 |
| CC(CCc1c[nH]c2ccccc12)N1CCN(c2cccc(Cl)n2)CC1 (centres unmarked) | 6.85 |
| Clc1cccc(N2CCN(CCc3c[nH]c4ccccc34)CC2)n1 [Example 14, hydrochloride] | 7.13 |
| CC1CN(c2cccc(Cl)n2)CCN1CCCc1c[nH]c2ccccc12 (centres unmarked) | 7.73 |
| Clc1cccc(N2C[C@@H]3C[C@H]2CN3CCc2c[nH]c3ccccc23)n1 | 7.11 |

----------
- Subject of test: serotonin uptake (Rattus norvegicus)
- Construct: from tissue
- Assay explanation: Inhibition of serotonin uptake (in vitro): inhibition of synaptosomal reuptake of tritiated serotonin
- Type: biochemical
- Protocol: Determination of endogenous monoaminergic re-uptake inhibition values both for serotonin and norepinephrine was accomplished using test methods described by P. Skolnick, et al.. Br. J. Pharmacology (1985), 86, pp. 637-644; with only minor modifications. In vitro IC50 (nM) test values were determined for representative compounds of Formula I based on their inhibition of synaptosomal reuptake of tritiated serotonin. […]
pIC50: −log10 of the molar value. Where a name gives a salt, the structure may show the parent alone.
Item-by-item account of pIC50

| Compound | Value prefix | pIC50 |
| --- | --- | --- |
| Cn1cc(CCCN2CCN(c3cccc(Cl)n3)CC2)c2ccccc21 | = | 7.07 |
| COc1ccc2[nH]cc(CCN3CCN(c4ncccc4OC)CC3)c2c1 | = | 7.96 |
| COc1cccc(N2CCN(CCc3c[nH]c4ccccc34)CC2)n1 [Example 16, hydrate] | = | 7.06 |
| FC(F)(F)c1cccc(N2CCN(CCCc3c[nH]c4ccccc34)CC2)n1 | = | 6.72 |
| COc1cc2[nH]cc(CCN3CCN(c4cccc(C(F)(F)F)n4)CC3)c2cc1OC | = | 6.32 |
| Clc1ccc2[nH]cc(CCN3CCN(c4cccc(Cl)n4)CC3)c2c1 | = | 6.78 |
| COc1cccnc1N1CCN(CCc2c[nH]c3ccccc23)C(C)C1 (stereo not drawn) [Example 25] | = | 8.07 |
| COc1cccnc1N1CCN(CCc2c[nH]c3ccccc23)C(C)C1 (stereo not drawn) [Example 64] | > | 9.00 |
| COc1cccnc1N1CCN(CCCc2c[nH]c3ccccc23)CC1 [Example 20, dihydrochloride hydrate] | = | 8.96 |
| COc1cc2[nH]cc(CCN3CCN(c4cccc(Cl)n4)CC3)c2cc1OC | = | 6.90 |
| COc1cccnc1N1C[C@@H]2C[C@H]1CN2CCCc1c[nH]c2ccccc12 | = | 8.25 |
| COc1cccnc1N1CCN(CCc2c[nH]c3ccc(Cl)cc23)CC1 | > | 9.00 |
| Fc1ccc2[nH]cc(CCN3CCN(c4cccc(Cl)n4)CC3)c2c1 | = | 8.55 |
| COc1cccnc1N1CCN(C(C)CCc2c[nH]c3ccccc23)CC1 (stereo not drawn) | = | 7.44 |
| FC(F)(F)c1ccnc(N2CCN(CCCc3c[nH]c4ccccc34)CC2)c1 | = | 6.98 |
| Fc1ccc2[nH]cc(C3=CCC(N4CCN(c5cccc(Cl)n5)CC4)CC3)c2c1 (stereo not drawn) | = | 6.85 |
| COc1cccnc1N1CCN(CCc2cn(C)c3ccccc23)CC1 | = | 7.62 |
| COc1cccnc1N1C[C@H]2C[C@@H]1CN2CCCc1c[nH]c2ccccc12 | = | 6.82 |
